These measurements were taken from patent US20160272691A1.

Some binders, each annotated with its measured ΔG.
Test target: T1, His6-tagged Bcl-XL (residues 1-208, N52D, N66D) (human), Q07817
T1 chain: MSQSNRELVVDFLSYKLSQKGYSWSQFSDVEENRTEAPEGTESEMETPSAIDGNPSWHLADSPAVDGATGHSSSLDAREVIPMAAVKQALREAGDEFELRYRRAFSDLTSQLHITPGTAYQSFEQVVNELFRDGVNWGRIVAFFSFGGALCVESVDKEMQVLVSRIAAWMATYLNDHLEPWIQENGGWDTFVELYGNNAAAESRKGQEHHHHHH
Measurement protocol: ITC, 25 °C
Express your answer in kcal/mol, writing the number without its unit.

Known results for binders:
[[record]]
binder = "GSGTMENLSRRLKVTGDLADIMSGQT (modifications not checked) [Beclin 1 BH3D-derived peptide F123A]"
unit_of_measurement = "kcal/mol"
test_value = -4.63

[[record]]
binder = "GSGTMENASRRLKVTGDLFDIMSGQT (modifications not checked) [Beclin 1 BH3D-derived peptide L112A]"
unit_of_measurement = "kcal/mol"
test_value = -5.4

[[record]]
binder = "GSGTMENLSRRLAVTGDLFDIMSGQT (modifications not checked) [Beclin 1 BH3D-derived peptide K117A]"
unit_of_measurement = "kcal/mol"
test_value = -6.45


Query: Item under review: GSGTMENLSRRLKVTGDLFDIMSGQT (modifications not checked) [Beclin 1 BH3D peptide, wild type] . Reported ΔG?
Response: -7.79
